Recorded values, source patent US7597904B2.

target: ACE (Homo sapiens)
Sequence (P12821 30-1306, species assumed): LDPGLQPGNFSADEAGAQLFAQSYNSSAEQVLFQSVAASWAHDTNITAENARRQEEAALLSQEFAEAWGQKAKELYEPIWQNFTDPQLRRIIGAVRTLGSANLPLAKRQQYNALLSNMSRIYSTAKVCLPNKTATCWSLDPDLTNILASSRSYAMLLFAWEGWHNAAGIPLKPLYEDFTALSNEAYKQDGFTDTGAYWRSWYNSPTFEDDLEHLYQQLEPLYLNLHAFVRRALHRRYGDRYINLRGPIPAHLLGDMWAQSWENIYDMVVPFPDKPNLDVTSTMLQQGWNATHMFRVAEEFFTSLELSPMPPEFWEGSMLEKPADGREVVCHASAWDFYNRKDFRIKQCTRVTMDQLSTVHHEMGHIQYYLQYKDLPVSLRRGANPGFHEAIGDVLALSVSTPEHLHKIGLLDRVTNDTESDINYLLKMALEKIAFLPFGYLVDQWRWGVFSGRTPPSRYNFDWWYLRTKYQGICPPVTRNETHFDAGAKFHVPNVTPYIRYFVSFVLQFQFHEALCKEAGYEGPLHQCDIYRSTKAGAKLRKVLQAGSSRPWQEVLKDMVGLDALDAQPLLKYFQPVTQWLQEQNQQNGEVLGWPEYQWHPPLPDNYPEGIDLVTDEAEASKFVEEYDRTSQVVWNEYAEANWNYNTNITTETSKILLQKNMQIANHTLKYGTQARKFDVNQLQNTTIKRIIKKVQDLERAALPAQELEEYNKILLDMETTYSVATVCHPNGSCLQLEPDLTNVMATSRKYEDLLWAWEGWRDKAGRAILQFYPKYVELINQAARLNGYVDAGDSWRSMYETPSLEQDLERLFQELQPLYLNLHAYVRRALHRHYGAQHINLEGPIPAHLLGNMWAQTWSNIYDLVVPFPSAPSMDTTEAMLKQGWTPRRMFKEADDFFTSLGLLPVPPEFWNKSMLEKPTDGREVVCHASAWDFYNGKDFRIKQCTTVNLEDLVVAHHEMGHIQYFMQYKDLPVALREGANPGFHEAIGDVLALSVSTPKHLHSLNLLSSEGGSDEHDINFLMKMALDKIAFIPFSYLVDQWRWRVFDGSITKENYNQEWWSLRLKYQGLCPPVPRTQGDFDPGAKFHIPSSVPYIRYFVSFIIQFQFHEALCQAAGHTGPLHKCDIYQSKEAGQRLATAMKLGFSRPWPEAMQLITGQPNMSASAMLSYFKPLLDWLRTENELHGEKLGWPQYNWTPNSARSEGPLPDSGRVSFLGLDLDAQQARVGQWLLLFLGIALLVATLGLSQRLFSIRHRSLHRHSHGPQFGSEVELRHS
Residues, ends and D or L forms follow the SMILES beside them.
REPORTED_PROPERTY: IC50 (µM)
One number for each entry, in µM.

Prompt line: API: value(readout=IC50, system=ACE (Homo sapiens)) for record CC(C)C[C@H](NC(=O)[C@H](CC(C)C)NC(=O)[C@@H]1CCCN1C(=O)[C@H](CC(C)C)NC(=O)[C@@H]1CCCN1C(=O)[C@H](CC(C)C)NC(=O)[C@H](Cc1c[nH]cn1)NC(=O)[C@H](CC(C)C)NC(=O)[C@@H](N)CC(N)=O)C(=O)O [NLHLPLPLL] (H-NLHLPLPLL-OH; N-terminus and C-terminus assumed)
Response line: 15

###

Target sequence: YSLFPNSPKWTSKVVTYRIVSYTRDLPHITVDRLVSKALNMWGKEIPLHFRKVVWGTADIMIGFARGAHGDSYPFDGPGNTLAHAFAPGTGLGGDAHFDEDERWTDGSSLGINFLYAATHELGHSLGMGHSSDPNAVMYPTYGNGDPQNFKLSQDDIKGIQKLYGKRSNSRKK
Residues, ends and D or L forms follow the SMILES beside them.
REPORTED_PROPERTY: pIC50
One number for each entry, as −log10 of the molar value.

Past entries and their recorded results:
COMPOUND	pIC50
CC(C)C[C@H](NC(=O)[C@H](CC(C)C)NC(=O)[C@H](CC(N)=O)NC(=O)[C@@H](N)CCC(=O)O)C(=O)N[C@@H](CCCNC(=N)N)C(=O)N[C@@H](Cc1ccccc1)C(=O)N[C@@H](Cc1ccccc1)C(=O)N[C@H](C(=O)N[C@@H](C)C(=O)N1CCC[C@H]1C(=O)N[C@@H](Cc1ccccc1)C(=O)N1CCC[C@H]1C(=O)N[C@@H](CCC(=O)O)C(=O)N[C@H](C(=O)N[C@@H](Cc1ccccc1)C(=O)NCC(=O)O)C(C)C)C(C)C [ENLLRFFVAPFPEVFG] (H-ENLLRFFVAPFPEVFG-OH; N-terminus and C-terminus assumed)	3.00
CC(C)[C@H](NC(=O)[C@H](CCC(=O)O)NC(=O)[C@@H]1CCCN1C(=O)[C@H](Cc1ccccc1)NC(=O)[C@@H]1CCCN1C(=O)[C@H](C)NC(=O)[C@@H](NC(=O)[C@@H](N)Cc1ccccc1)C(C)C)C(=O)N[C@@H](Cc1ccccc1)C(=O)NCC(=O)O [FVAPFPEVFG] (H-FVAPFPEVFG-OH; N-terminus and C-terminus assumed)	3.52
CC(C)C[C@H](NC(=O)[C@H](CC(C)C)NC(=O)[C@@H]1CCCN1C(=O)[C@H](CC(C)C)NC(=O)[C@@H]1CCCN1C(=O)[C@H](CC(C)C)NC(=O)[C@H](Cc1c[nH]cn1)NC(=O)[C@H](CC(C)C)NC(=O)[C@H](CC(N)=O)NC(=O)[C@@H](N)CCC(=O)O)C(=O)O [ENLHLPLPLL] (H-ENLHLPLPLL-OH; N-terminus and C-terminus assumed)	3.56

Prompt line: // returns reported pIC50 for input CC(C)C[C@H](NC(=O)[C@H](CC(C)C)NC(=O)[C@@H]1CCCN1C(=O)[C@H](CC(C)C)NC(=O)[C@@H]1CCCN1C(=O)[C@H](CC(C)C)NC(=O)[C@H](Cc1c[nH]cn1)NC(=O)[C@H](CC(C)C)NC(=O)[C@H](CC(N)=O)NC(=O)[C@H](CCC(=O)O)NC(=O)[C@@H](N)C(C)C)C(=O)O [VENLHLPLPLL] (H-VENLHLPLPLL-OH; N-terminus and C-terminus assumed)
Response line: 3.60

###

Residues, ends and D or L forms follow the SMILES beside them.
The following compounds have recorded IC50 on ACE (Homo sapiens).
Give bare numbers, in µM.

Past entries and their recorded results:
COMPOUND	MEASURED
CC(C)C[C@H](NC(=O)[C@H](CC(C)C)NC(=O)[C@@H]1CCCN1C(=O)[C@H](CC(C)C)NC(=O)[C@@H]1CCCN1C(=O)[C@H](CC(C)C)NC(=O)[C@H](Cc1c[nH]cn1)NC(=O)[C@H](CC(C)C)NC(=O)[C@H](CC(N)=O)NC(=O)[C@H](CCC(=O)O)NC(=O)[C@@H](N)C(C)C)C(=O)O [VENLHLPLPLL] (H-VENLHLPLPLL-OH; N-terminus and C-terminus assumed)	175
CC(C)[C@H](NC(=O)[C@H](CCC(=O)O)NC(=O)[C@@H]1CCCN1C(=O)[C@H](Cc1ccccc1)NC(=O)[C@@H]1CCCN1C(=O)[C@H](C)NC(=O)[C@@H](NC(=O)[C@@H](N)Cc1ccccc1)C(C)C)C(=O)N[C@@H](Cc1ccccc1)C(=O)NCC(=O)O [FVAPFPEVFG] (H-FVAPFPEVFG-OH; N-terminus and C-terminus assumed)	650
CC(C)C[C@H](NC(=O)[C@H](CC(C)C)NC(=O)[C@@H]1CCCN1C(=O)[C@H](CC(C)C)NC(=O)[C@@H]1CCCN1C(=O)[C@H](CC(C)C)NC(=O)[C@H](Cc1c[nH]cn1)NC(=O)[C@H](CC(C)C)NC(=O)[C@H](CC(N)=O)NC(=O)[C@@H](N)CCC(=O)O)C(=O)O [ENLHLPLPLL] (H-ENLHLPLPLL-OH; N-terminus and C-terminus assumed)	250

Prompt line: // returns reported IC50 for input CC(C)C[C@H](NC(=O)[C@H](CC(C)C)NC(=O)[C@H](CC(N)=O)NC(=O)[C@@H](N)CCC(=O)O)C(=O)N[C@@H](CCCNC(=N)N)C(=O)N[C@@H](Cc1ccccc1)C(=O)N[C@@H](Cc1ccccc1)C(=O)N[C@H](C(=O)N[C@@H](C)C(=O)N1CCC[C@H]1C(=O)N[C@@H](Cc1ccccc1)C(=O)N1CCC[C@H]1C(=O)N[C@@H](CCC(=O)O)C(=O)N[C@H](C(=O)N[C@@H](Cc1ccccc1)C(=O)NCC(=O)O)C(C)C)C(C)C [ENLLRFFVAPFPEVFG] (H-ENLLRFFVAPFPEVFG-OH; N-terminus and C-terminus assumed)
Response line: 250

###

target: MMP-7 (Homo sapiens, UniProt P09237)
Residues, ends and D or L forms follow the SMILES beside them.
REPORTED_PROPERTY: IC50

Prompt line: // returns reported IC50 for input CC(C)C[C@H](NC(=O)[C@H](CC(C)C)NC(=O)[C@@H]1CCCN1C(=O)[C@H](CC(C)C)NC(=O)[C@@H]1CCCN1C(=O)[C@H](CC(C)C)NC(=O)[C@H](Cc1c[nH]cn1)NC(=O)[C@H](CC(C)C)NC(=O)[C@@H](N)CC(N)=O)C(=O)O [NLHLPLPLL] (H-NLHLPLPLL-OH; N-terminus and C-terminus assumed)
Response line: 1200 µM

###

Residues, ends and D or L forms follow the SMILES beside them.
The following compounds have recorded pIC50 on MMP-9 (Homo sapiens).
Sequence (P14780 94-707, species assumed): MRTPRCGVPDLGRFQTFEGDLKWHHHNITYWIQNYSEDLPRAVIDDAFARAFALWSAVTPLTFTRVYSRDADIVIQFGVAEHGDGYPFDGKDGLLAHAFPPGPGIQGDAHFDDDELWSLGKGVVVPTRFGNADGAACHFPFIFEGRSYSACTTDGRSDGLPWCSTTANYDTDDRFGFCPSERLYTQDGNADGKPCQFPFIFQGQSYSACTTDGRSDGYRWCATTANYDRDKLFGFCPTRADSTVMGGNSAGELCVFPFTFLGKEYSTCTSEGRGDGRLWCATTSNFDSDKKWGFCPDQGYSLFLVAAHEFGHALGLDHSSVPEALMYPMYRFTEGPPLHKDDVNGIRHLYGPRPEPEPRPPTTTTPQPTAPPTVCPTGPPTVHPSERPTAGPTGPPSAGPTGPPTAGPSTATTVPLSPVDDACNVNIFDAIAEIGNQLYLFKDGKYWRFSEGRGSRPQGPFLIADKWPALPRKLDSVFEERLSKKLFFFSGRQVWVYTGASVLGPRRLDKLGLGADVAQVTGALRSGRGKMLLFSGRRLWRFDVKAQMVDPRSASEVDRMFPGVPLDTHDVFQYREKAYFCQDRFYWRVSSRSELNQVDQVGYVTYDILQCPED
Answers are plain numbers, as −log10 of the molar value.

Past entries and their recorded results:
COMPOUND	pIC50
CC(C)C[C@H](NC(=O)[C@H](CC(C)C)NC(=O)[C@H](CC(N)=O)NC(=O)[C@@H](N)CCC(=O)O)C(=O)N[C@@H](CCCNC(=N)N)C(=O)N[C@@H](Cc1ccccc1)C(=O)N[C@@H](Cc1ccccc1)C(=O)N[C@H](C(=O)N[C@@H](C)C(=O)N1CCC[C@H]1C(=O)N[C@@H](Cc1ccccc1)C(=O)N1CCC[C@H]1C(=O)N[C@@H](CCC(=O)O)C(=O)N[C@H](C(=O)N[C@@H](Cc1ccccc1)C(=O)NCC(=O)O)C(C)C)C(C)C [ENLLRFFVAPFPEVFG] (H-ENLLRFFVAPFPEVFG-OH; N-terminus and C-terminus assumed)	3.82
CC(C)C[C@H](NC(=O)[C@H](CC(C)C)NC(=O)[C@@H]1CCCN1C(=O)[C@H](CC(C)C)NC(=O)[C@@H]1CCCN1C(=O)[C@H](CC(C)C)NC(=O)[C@H](Cc1c[nH]cn1)NC(=O)[C@H](CC(C)C)NC(=O)[C@H](CC(N)=O)NC(=O)[C@@H](N)CCC(=O)O)C(=O)O [ENLHLPLPLL] (H-ENLHLPLPLL-OH; N-terminus and C-terminus assumed)	3.52
CC(C)C[C@H](NC(=O)[C@H](CC(C)C)NC(=O)[C@@H]1CCCN1C(=O)[C@H](CC(C)C)NC(=O)[C@@H]1CCCN1C(=O)[C@H](CC(C)C)NC(=O)[C@H](Cc1c[nH]cn1)NC(=O)[C@H](CC(C)C)NC(=O)[C@H](CC(N)=O)NC(=O)[C@H](CCC(=O)O)NC(=O)[C@@H](N)C(C)C)C(=O)O [VENLHLPLPLL] (H-VENLHLPLPLL-OH; N-terminus and C-terminus assumed)	3.52
CC(C)C[C@H](NC(=O)[C@H](CC(C)C)NC(=O)[C@@H]1CCCN1C(=O)[C@H](CC(C)C)NC(=O)[C@@H]1CCCN1C(=O)[C@H](CC(C)C)NC(=O)[C@H](Cc1c[nH]cn1)NC(=O)[C@H](CC(C)C)NC(=O)[C@@H](N)CC(N)=O)C(=O)O [NLHLPLPLL] (H-NLHLPLPLL-OH; N-terminus and C-terminus assumed)	3.22

Turning to the following compound.
Prompt line: // returns reported pIC50 for input CC(C)[C@H](NC(=O)[C@H](CCC(=O)O)NC(=O)[C@@H]1CCCN1C(=O)[C@H](Cc1ccccc1)NC(=O)[C@@H]1CCCN1C(=O)[C@H](C)NC(=O)[C@@H](NC(=O)[C@@H](N)Cc1ccccc1)C(C)C)C(=O)N[C@@H](Cc1ccccc1)C(=O)NCC(=O)O [FVAPFPEVFG] (H-FVAPFPEVFG-OH; N-terminus and C-terminus assumed)
Response line: 3.40
